Measured values drawn from patent US12692269B2 for this set.

Experimental system: TEAD1 YAP50-100 (Homo sapiens, UniProt P28347)
Sequence (P28347 167-426 limits assumed): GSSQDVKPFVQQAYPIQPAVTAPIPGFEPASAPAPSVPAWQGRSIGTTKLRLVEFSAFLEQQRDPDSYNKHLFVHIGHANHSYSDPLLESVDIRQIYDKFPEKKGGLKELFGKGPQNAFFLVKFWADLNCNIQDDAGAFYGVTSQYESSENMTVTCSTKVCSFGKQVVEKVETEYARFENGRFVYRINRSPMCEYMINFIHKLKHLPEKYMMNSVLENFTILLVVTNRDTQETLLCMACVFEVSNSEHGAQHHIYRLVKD
Protocol: TEAD1-YAP HTRF (TR-FRET) protein-protein interaction assay
Format: binding
Measurement setup: TEAD1, YAP peptide 50-100, HTRF
Metric: TEAD1 YAP50-100 HTRF combined: Max % Inhibition
Answer as a quantity: numeral, then unit.

| Compound | Result |
| --- | --- |
| C[C@@H](CO)c1nn2c(=O)cc(-c3ccc(C4CCCCC4)cc3)[nH]c2c1C(=O)N1CC(CF)C1 (single isomer, unassigned) [Enantiomer B, Example 55] | 71.0% |
| O=C(c1c(-c2ncccn2)nn2c(=O)cc(-c3ccc(C4CCCCC4)c(F)c3)[nH]c12)N1CC(CF)C1 | 69.0% |
| CN(C)C(=O)c1nn2c(=O)cc(-c3ccc(C4CCCCC4)cc3)[nH]c2c1C(=O)N1CC(CF)C1 | 70.0% |
| O=C(c1c(-c2ncco2)nn2c(=O)cc(-c3ccc(C4CCCCC4)cc3)[nH]c12)N1CC(CF)C1 | 69.0% |
| Cc1nccnc1-c1nn2c(=O)cc(-c3ccc(C4CCCCC4)cc3)[nH]c2c1C(=O)N(C)C | 72.0% |
| Cc1ccnc(-c2nn3c(=O)cc(-c4ccc(C5CCCCC5)cc4)[nH]c3c2C(=O)N2CC(CF)C2)n1 | 71.0% |
| CC1CCN1C(=O)c1nn2c(=O)cc(-c3ccc(C4CCCCC4)cc3)[nH]c2c1C(=O)N1CC(CF)C1 (single isomer, unassigned) [Enantiomer A, Example 33] | 71.0% |
| CCCCc1ccc(-c2cc(=O)n3nc(-c4nccnc4C)c(C(=O)N4CC(CF)C4)c3[nH]2)cc1 | 71.0% |
| Cc1c(-c2nn3c(=O)cc(-c4ccc(C5CCCCC5)cc4)[nH]c3c2C(=O)N2CC(CF)C2)ncn1C | 71.0% |
| CCc1ccnc(-c2nn3c(=O)cc(-c4ccc(C5CCCCC5)cc4)[nH]c3c2C(=O)N2CC(CF)C2)n1 | 72.0% |

Moving on to another compound below.
**Q:** // lookup TEAD1 YAP50-100 HTRF combined: Max % Inhibition | system=TEAD1 YAP50-100 (Homo sapiens, UniProt P28347) | key= Cc1nccnc1-c1nn2c(=O)cc(-c3ccc(C4CCCCC4)cc3)[nH]c2c1C(=O)N1C[C@@H](CF)[C@H]1C (single isomer, unassigned) [Isomer A, Example 41]
**A:** 69.0%
